- Test system: PC-3 prostate
- assayComment: NCI tumour cell line growth inhibition, 48 h
# reported TGI; entries follow
metricName: TGI

INSERT INTO assay_data (molecule, metricname, observedvalue) VALUES
  ('O=C(/C=C/CN1CCCCC1)Nc1cc2c(Nc3ccc(F)c(Cl)c3F)ncnc2cc1OCCOC(F)F', 'TGI', '8.43 µM'),
  ('O=C1NC(N2CCCC(CO)C2)=N/C1=C\c1ccc(O)cc1 (stereo not given)', 'TGI', '> 100 µM'),
  ('N#Cc1c(C#N)c(-c2ccco2)n(/N=C/c2ccco2)c1N', 'TGI', '> 100 µM'),
  ('O=c1[nH]/c(=C/c2ccc(OCc3ccccc3)cn2)c(=O)[nH]/c1=C/c1cccnc1', 'TGI', '> 100 µM'),
  ('c1ccc(C2(c3cc4ccccc4[nH]3)OCCO2)cc1', 'TGI', '> 100 µM');

---

- Tested on: BT-549 breast
- assayComment: NCI tumour cell line growth inhibition, 48 h; in the data active means GI50 below about 0.43 µM; inactive means the rest
Outcome codes: active, inactive

INSERT INTO measurements (molecule, testedsystem, discretelabel) VALUES
  ('Cc1nc2cc(NC(=O)CN3CCN(CCN4C(=O)c5cccc6cccc(c56)C4=O)CC3)ccc2s1', 'BT-549 breast', 'inactive'),
  ('C[As](C)SCC(COC(=O)c1ccccc1)OC(=O)c1ccccc1 (stereo not drawn)', 'BT-549 breast', 'inactive'),
  ('O=C(/C=C/CN1CCCCC1)Nc1cc2c(Nc3ccc(F)c(Cl)c3F)ncnc2cc1OCCOC(F)F', 'BT-549 breast', 'inactive'),
  ('CN1CCN(Cc2ccc(NC(=O)c3cncc(C#Cc4c(N)ncc5ccc(F)cc45)c3)cc2C(F)(F)F)CC1', 'BT-549 breast', 'inactive'),
  ('Nc1cc(N)c2nc(-c3ccccc3)c(Sc3ccc(F)cc3)nc2c1', 'BT-549 breast', 'inactive'),
  ('CNCc1ccc(C)c(NC(=O)c2ccc(Nc3nc(-c4ccccc4)c4ccccc4n3)cc2)c1', 'BT-549 breast', 'inactive'),
  ('COC(=O)[C@@H](C)C[C@H](Cc1ccccc1)NC(=O)c1cccc([C@@H](C[C@H](C(C)C)N(C)C(=O)[C@@H](NC(=O)[C@H]2CCCCN2C)C(C)C)OC(C)=O)n1', 'BT-549 breast', 'active'),
  ('COc1ccc(/C=C2\CN(Cc3cn(CCCNc4ccnc5cc(Cl)ccc45)nn3)C/C(=C\c3ccc(OC)cc3)C2=O)cc1', 'BT-549 breast', 'inactive');

---

# reported TGI; entries follow
- Test system: K-562 leukemia
- assayComment: NCI tumour cell line growth inhibition, 48 h
metricName: TGI

INSERT INTO measurements (compound, observedvalue) VALUES
  ('COc1ccc(-c2nccn2-c2cc(OC)c(OC)c(OC)c2)cc1', '> 100 µM'),
  ('C[Si](C)(C)C1=C2C(=O)c3ccccc3C(=O)C2=C([Si](C)(C)C)[C@@H]2CCCC[C@H]12', '> 100 µM'),
  ('COc1ccccc1C1C(Cl)C(=O)N1NC(=O)Cc1ccccc1 (stereo not drawn)', '> 100 µM'),
  ('CNCc1ccc(C)c(NC(=O)c2ccc(Nc3nc(-c4ccccc4)c4ccccc4n3)cc2)c1', '4.54 µM'),
  ('O=c1c2ccccc2nc(-c2ccccc2Cl)n1NC1OC(CO)C(O)C(O)C1O (stereo not drawn)', '> 100 µM'),
  ('CC(C)CCC[C@@H](C)[C@H]1CC[C@H]2[C@@H]3CC=C4CC(OCCCCN(O)CCCSC5OC(CO)C(O)C(O)C5O)CC[C@]4(C)[C@H]3CC[C@]12C (stereo partly drawn)', '> 100 µM'),
  ('COC(=O)c1ccc2[nH]c3c(c2c1)CC(=O)Nc1ccccc1-3', '97.7 µM'),
  ('O=C(CSCC(=O)N/N=C\c1cc(Br)cc(Br)c1O)N/N=C\c1cc(Br)cc(Br)c1O', '80.1 µM');

---

# reported GI50; entries follow
- System: OVCAR-5 ovarian
- assayComment: NCI tumour cell line growth inhibition, 48 h
metricName: GI50

INSERT INTO assay_data (moleculesmiles, testedsystem, observedvalue) VALUES
  ('Cc1nc2cc(NC(=O)CN3CCN(CCN4C(=O)c5cccc6cccc(c56)C4=O)CC3)ccc2s1', 'OVCAR-5 ovarian', '14.1 µM'),
  ('C=C1C(=O)O[C@H]2[C@H]1CC/C(Cn1cc(CNC(=O)c3cc4ccccc4[nH]3)nn1)=C\CC[C@@]1(C)O[C@@H]21', 'OVCAR-5 ovarian', '2.51 µM'),
  ('COc1ccc(N2CCN(CC(=O)N3CCN(c4nnc(-c5ccc(Cl)cc5)c(-c5ccc(Cl)cc5)n4)CC3)CC2)cc1', 'OVCAR-5 ovarian', '> 100 µM'),
  ('Nc1cc(N)c2nc(-c3ccccc3)c(Sc3ccc(F)cc3)nc2c1', 'OVCAR-5 ovarian', '19 µM'),
  ('COc1ccc(C(=O)CC(Cl)=C(Cl)Cl)cc1', 'OVCAR-5 ovarian', '22.6 µM'),
  ('C=CC(=O)N1CC[C@@H](Oc2nc(Nc3ccc(N4CCC(N5CCN(C)CC5)CC4)cc3)c(C(N)=O)nc2CC)C1', 'OVCAR-5 ovarian', '> 100 µM'),
  ('COC(=O)c1cc2c([nH]c3ccccc32)c(-c2nc3cc(N(S(=O)(=O)c4ccc(C)cc4)S(=O)(=O)c4ccc(C)cc4)c(OC)cc3cc2CO)n1', 'OVCAR-5 ovarian', '> 100 µM'),
  ('N#Cc1ccccc1C#C/C=C\C#Cc1cnccn1', 'OVCAR-5 ovarian', '6.09 µM'),
  ('Cc1cc(N2CCOCC2)nc(N(CCNc2ccnc3cc(Cl)ccc23)Cc2cccs2)n1', 'OVCAR-5 ovarian', '2.19 µM'),
  ('Cn1cnc2nc(Cl)nc(Cl)c21', 'OVCAR-5 ovarian', '3.56 µM');

---

# reported TGI; entries follow
- Tested on: CCRF-CEM leukemia
- assayComment: NCI tumour cell line growth inhibition, 48 h
metricName: TGI

INSERT INTO results (molecule, testedsystem, observedvalue) VALUES
  ('CCOC(=O)C(Cc1ccc(N(CCCl)CCCl)cc1)NC(=O)C(CC(C)C)NC(C)=O (configuration not stated)', 'CCRF-CEM leukemia', '3.31 µM'),
  ('CCCCCCCCCCCCCCCCCc1nc(C#N)c(N)o1', 'CCRF-CEM leukemia', '> 100 µM'),
  ('N#Cc1c(C#N)c(-c2ccco2)n(/N=C/c2ccco2)c1N', 'CCRF-CEM leukemia', '> 100 µM'),
  ('COc1cc(OC)cc(N(C)Cc2cnc3nc(N)nc(N)c3c2C)c1', 'CCRF-CEM leukemia', '> 100 µM'),
  ('COc1ccc(N=Nc2ccc3oc(=O)c(C(=O)Nc4ccc(OC)cc4)cc3c2)cc1', 'CCRF-CEM leukemia', '> 100 µM'),
  ('O=C1c2c(ccc3c2CCCC3)CC12Cc1ccccc1C2', 'CCRF-CEM leukemia', '27 µM'),
  ('C=C(Cl)C(Cl)(CBr)CCC(Cl)C(C)C (configuration not stated)', 'CCRF-CEM leukemia', '> 100 µM'),
  ('CCS(=O)(=O)Nc1ccc(Oc2ccc(F)cc2F)c(-c2cn(C)c(=O)c3[nH]ccc23)c1', 'CCRF-CEM leukemia', '> 60 µM'),
  ('CC1SC(c2cccc(Oc3ccccc3)c2)N(CCc2cccs2)C1=O (configuration not stated)', 'CCRF-CEM leukemia', '> 24 µM'),
  ('CCOC(=O)C1(C/C=C\CBr)CCCCCCC1=O (configuration not stated)', 'CCRF-CEM leukemia', '> 100 µM'),
  ('CCN(CC)CCC(CNc1c2ccc(Cl)cc2nc2ccc(OC)cc12)c1ccccc1 (configuration not stated)', 'CCRF-CEM leukemia', '5.17 µM'),
  ('CN(C)/C=C/c1ccnc2c1C(=O)c1ccccc1C2=O', 'CCRF-CEM leukemia', '> 56 µM'),
  ('CCc1cccc(C(C)C)c1C1C(=O)C(=O)N(c2nc3ccccc3s2)C(=O)C1=O', 'CCRF-CEM leukemia', '> 100 µM'),
  ('CC(=O)CC(=O)Nn1c(-c2cccs2)nc2ccc(I)cc2c1=O', 'CCRF-CEM leukemia', '> 100 µM'),
  ('CN(C)c1ccc(/C=C/C(=O)c2ccc(Nc3nc(Nc4ccc(F)cc4)nc(Nc4ccc(Cl)cc4)n3)cc2)cc1', 'CCRF-CEM leukemia', '9.44 µM'),
  ('C[As](C)SCC(COC(=O)c1ccccc1)OC(=O)c1ccccc1 (configuration not stated)', 'CCRF-CEM leukemia', '0.759 µM'),
  ('Cc1cccc2ns[s+]c12', 'CCRF-CEM leukemia', '> 100 µM'),
  ('Cn1cnc2nc(Cl)nc(Cl)c21', 'CCRF-CEM leukemia', '22.1 µM'),
  ('Cc1nn(-c2ccccc2)c2ncc3c(c12)C(=O)N(Cc1ccccc1)C3=O', 'CCRF-CEM leukemia', '16.8 µM'),
  ('COc1cc2c(c(OC)c1OC)-c1c(c3ccc([N+](=O)[O-])cc3c(=O)n1CCCN=[N+]=[N-])C2=O', 'CCRF-CEM leukemia', '> 100 µM'),
  ('Cc1nc2cc(NC(=O)CN3CCN(CCN4C(=O)c5cccc6cccc(c56)C4=O)CC3)ccc2s1', 'CCRF-CEM leukemia', '95.9 µM'),
  ('COc1cc(NS(C)(=O)=O)ccc1N1Cc2cnc3ccc4[nH]ccc1c4c23', 'CCRF-CEM leukemia', '> 100 µM');
